Ref: PubChem BioAssay (NCATS)

experiment: Primary qHTS for inhibitors of nuclear receptor binding SET domain protein 2 (NSD2) in an isogenic RCH-ACV NSD2 p.E1099K mutant (9B) (AID 1645876); conditions: RCH-ACV (leukaemia line) NSD2 E1099K (9B) viability, CellTiter-Glo, 72 h; series mostly up to 44.9 µM; also: potency is read from the fitted curve at half-maximal effect; nearly all actives have a fitted effect of over 70% in size
Records with an inconclusive call do not appear. Active and inactive are the calls of the source. Calls follow the shape of the dose curve; as a rule, active = well fitted inhibition curve with a large enough effect; inconclusive = small, poorly fitted or top-dose-only effect; inactive = flat fitted curve, though single readings scatter.
OBSERVABLE: Potency

Check out these entries, answers already filled in.
{"COMPOUND": "N#Cc1cn([C@@H]2O[C@H](CO)[C@H](O)[C@@H]2O)c2ncnc(N)c12", "Potency": "0.0129 µM (active)"}
{"COMPOUND": "CO[C@@H]1[C@H](O)[C@@H](O[C@@H]2C[C@H]3CC[C@@H]4C(CC[C@]5(C)[C@@H](C6=CC(=O)OC6)CC[C@]45O)[C@@]3(C)[C@H](O)C2)O[C@H](C)[C@@H]1O (some centres undefined)", "Potency": "0.0893 µM (active)"}
{"COMPOUND": "O=C(C[C@@H]1NCCC[C@H]1O)Cn1cnc2ccccc2c1=O", "Potency": "0.129 µM (active)"}
{"COMPOUND": "C[C@H](CCC(=O)O)C[C@H](C)C[C@H](C)C(=O)/C=C(\\O)[C@H](C)C[C@H](C)C/C=C/[C@@H](C)[C@@H](O)[C@@H](C)[C@@H](O)C[C@@H]1CC[C@@](C)([C@H]2CC[C@@](C)([C@@H](C)O)O2)O1", "Potency": "7.09 µM (active)"}
{"COMPOUND": "C[C@]12CC[C@H](OC3OC(CO)C(O)C(O)C3OC3OC(CO)C(O)C(O)C3O)C[C@@H]1CC[C@@H]1C2CC[C@]2(C)[C@@H](C3=CC(=O)OC3)CC[C@]12O (some centres undefined)", "Potency": "4.3 µM (active)"}
{"COMPOUND": "CC(C)(O)/C=C/C(=O)[C@](C)(O)[C@H]1[C@H](O)C[C@@]2(C)[C@@H]3CC=C4[C@@H](C=C(O)C(=O)C4(C)C)[C@]3(C)C(=O)C[C@]12C", "Potency": "0.0422 µM (active)"}
{"COMPOUND": "COc1ccc2c(c1)[nH]c1c(C)nccc12", "Potency": "16.4 µM (active)"}

# input for lookup
Qu. // query Potency value for entry C[C@]12CC[C@@H](O)C[C@@H]1CC[C@@H]1[C@@H]2CC[C@]2(C)C(=O)[C@@H](Br)C[C@@H]12
Ans. 6.49 µM (active)

---

test: Validation screen for inhibitors of Lassa infection (AID 463096); details: Lassa virus infection, cell-based; series mostly up to 46.1 µM
Results filed as inconclusive are left out. Calls of active or inactive are those of the source. The call rests on the fitted dose curve.
OBSERVABLE: outcome

Example results:
{"COMPOUND": "O=S(=O)(c1cccc2c(I)cccc12)N1CCCNCC1", "ASSAY RESULT": "inactive"}
{"COMPOUND": "CNCCC(Oc1ccccc1C)c1ccccc1 (stereo not drawn)", "ASSAY RESULT": "inactive"}
{"COMPOUND": "NC/C=C\\C(=O)O", "ASSAY RESULT": "inactive"}
{"COMPOUND": "[Li+]", "ASSAY RESULT": "inactive"}
{"COMPOUND": "CCCCCCC/C=C\\CCCCCCCCC(=O)O", "ASSAY RESULT": "inactive"}

Return reported outcome values for all items listed beneath this line.
1. CC1=C(/C=C/C(C)=C/C=C/C(C)=C\C(=O)O)C(C)(C)CCC1
2. O=[N+]([O-])c1ccc(O[C@@H]2O[C@H](CO)[C@@H](O)[C@H](O)[C@H]2F)c([N+](=O)[O-])c1

Ans.
inactive
inactive

Qu. Suppose we examine the compound C[N+](C)(CCCCCC[N+](C)(C)CCCN1C(=O)c2cccc3cccc(c23)C1=O)CCCN1C(=O)c2cccc3cccc(c23)C1=O ; what outcome value has been reported?
Ans. inactive
